Origin of the recorded values: patent US20110059940A1

# Tested on: β-amyloid peptide formation in human H4 cells
# protocol summary: Inhibition of β-amyloid peptide (Aβ) formation in H4 cells overexpressing HPLAP-APP fusion protein
# Assay type: cell-based
# condition info: class symbol, read-out: Binding affinity (IC50 in nM), activity class
IC50 values for the compounds below.

Worked cases, answers included:
INSERT INTO measurements (compound, experimental_result) VALUES
  ('CCNC(=O)c1ccc(CN(C(C(N)=O)c2cc(F)cc(F)c2)S(=O)(=O)c2ccc(Cl)cc2)cc1 (centres unmarked)', '0.25 to 50 nM'),
  ('N#Cc1ccc(CN(C(C(N)=O)c2cc(F)cc(F)c2)S(=O)(=O)c2ccc(Cl)cc2)cc1 (centres unmarked)', '0.25 to 50 nM'),
  ('NC(=O)C(c1cc(F)cc(F)c1)N(Cc1ccc(-n2cccn2)cc1)S(=O)(=O)c1ccc(Cl)cc1 (centres unmarked)', '0.25 to 50 nM'),
  ('CC(C)(C)OC(=O)c1ccc(CN(C(C(N)=O)c2cc(F)cc(F)c2)S(=O)(=O)c2ccc(Cl)cc2)cc1 (centres unmarked)', '0.25 to 50 nM'),
  ('NC(=O)C(c1cc(F)cc(F)c1)N(Cc1ccc(C(=O)O)cc1)S(=O)(=O)c1ccc(Cl)cc1 (centres unmarked)', '50 to 500 nM'),
  ('NC(=O)C(c1cc(F)cc(F)c1)N(Cc1ccc(F)cc1)S(=O)(=O)c1ccc(Cl)cc1 (centres unmarked)', '0.25 to 50 nM');

// IC50 lookup, key: NC(=O)C(c1cc(F)cc(F)c1)N(Cc1ccc(-n2cncn2)cc1)S(=O)(=O)c1ccc(Cl)cc1 (centres unmarked) 0.25 to 50 nM

// IC50 lookup, key: Cc1nc(-c2ccc(CN(C(C(N)=O)c3cc(F)cc(F)c3)S(=O)(=O)c3ccc(Cl)cc3)cc2)no1 (centres unmarked) 0.25 to 50 nM
